- Measurement Context: 298.15 K; 101.33 kPa; Liquid
mass density under 1000 kg/m3 gets MET, anything at or over 1000 kg/m3 gets NOT MET.

# Compound String, Label
measured = [
    ("CCCCCl", "MET"),
    ("CCCCCCCCCl", "MET"),
    ("ClCCCCCCCl", "NOT MET"),
]

IN: is_below(mass density, 1000 kg/m3) for "ClCCCl" ?
OUT: NOT MET

IN: I wonder whether "CCCCCCCl" has mass density below 1000 kg/m3. Can you tell?
OUT: MET

IN: # strict comparison: is reported mass density < 1000 kg/m3? input = "ClCCCCCl"
OUT: NOT MET
